Origin of values: the supplement of paper PMC7156485

tested on: TDF; assay: H1.0 immunofluorescence intensity relative to DMSO (% of DMSO); higher = stronger H1.0 induction, active = 120 or more; settings: concentration: 10 µM; 24 h
Kindly state H1.0 immunofluorescence intensity for each of the entries shown.
// no unit string in output, number only

Value of H1.0 immunofluorescence intensity reported for the compound CCC1=CC2CN3CCc4c([nH]c5ccccc45)C(C(=O)OC)(C2)C13 (stereo not drawn) is 102

Short answer for C=CCN1CC(C(=O)N(CCCN(C)C)C(=O)NCC)CC2c3cccc4[nH]cc(c34)CC21 (stereo not drawn) : H1.0 immunofluorescence intensity was 96.1

Consider CS(=O)(=O)O.Cc1c(C(=O)c2cccc3ccccc23)c2cccc3c2n1C(CN1CCOCC1)CO3 (stereo not drawn) [( R)-(+)-WIN 55,212-2 mesylate] . Its measured H1.0 immunofluorescence intensity is 131

# H1.0 immunofluorescence intensity (compound: CCCCCC=CCC=CCC=CCC=CCCCC(=O)NCCc1ccc(O)c(O)c1 ) is 94.9

Sure, the documented H1.0 immunofluorescence intensity for CC1(C(=O)O)C2CCC(O2)C1(C)C(=O)O (stereo not drawn) is 239

Measured H1.0 immunofluorescence intensity, CC(NC(C)(C)C)C(=O)c1cccc(Cl)c1.Cl (stereo not drawn) [Bupropion hydrochloride] : 102

// recorded H1.0 immunofluorescence intensity for Cl.OC1CCCCC1N1CCC(c2ccccc2)CC1 (stereo not drawn) [Vesamicol hydrochloride] : 94.2

GET /value?item= CCCN(CCC)CCc1c[nH]c2ccc(C(N)=O)cc12.O=C(O)C=CC(=O)O [N,N-Dipropyl-5-carboxamidotryptamine maleate] &field=H1.0 immunofluorescence intensity returns 97

====

Hi there, I'd appreciate the recorded H1.0 immunofluorescence intensity for every entry that follows.
test system: TDF; test: H1.0 immunofluorescence intensity relative to DMSO (% of DMSO); higher = stronger H1.0 induction, active = 120 or more; settings: concentration: 10 µM; 24 h
Answer with a bare number; do not write a unit.

H1.0 immunofluorescence intensity value, target or system TDF, for CCCN1CCCC(c2cccc(O)c2)C1.Cl (stereo not drawn) [R(+)-3PPP hydrochloride] : 88.2

Response field H1.0 immunofluorescence intensity (TDF) for item CCCCCCCCCCCCCCCC(=O)OCC(COP(=O)([O-])OCC[N+](C)(C)C)OC(C)=O (stereo not drawn) : 98.7

Form field H1.0 immunofluorescence intensity for item Br.CCCN1CCc2cc(O)cc3c2C1Cc1ccc(O)c(O)c1-3 (stereo not drawn) [R(-)-2,10,11-Trihydroxy-N-propylnoraporphine hydrobromide] on TDF: 89.2

With TDF as the test system, Cc1[nH]c2ccc(O)cc2c1CCN.O=C(O)C=CC(=O)O [2-Methyl-5-hydroxytryptamine maleate] showed H1.0 immunofluorescence intensity of 98.3

H1.0 immunofluorescence intensity on TDF for CC(Cc1ccc(OCC(=O)[O-])cc1)NCC(O)c1cccc(Cl)c1.[Na+] (stereo not drawn) is 89.5

Form field, H1.0 immunofluorescence intensity with TDF, item CN1CC(CO)CC2c3cccc4[nH]cc(c34)CC21 (stereo not drawn) [9,10-Dihydrolysergol] : 102

H1.0 immunofluorescence intensity of CCCCCCC(=O)CCCCCCC=CCC(O)C(O)C(N)(CO)C(=O)O (stereo not drawn) , assay on TDF, is 99.4

Lab entry: TDF assay, molecule COC(=O)N1CCN(C(=O)Cc2ccc(Cl)c(Cl)c2)C(CN2CCCC2)C1.O=C(O)C=CC(=O)O (stereo not drawn) , H1.0 immunofluorescence intensity = 97.7

Log: TDF, molecule CN1C2CCCC1CC(=O)C2.Cl , H1.0 immunofluorescence intensity = 108

Lab entry: TDF assay, molecule CN(C)C(=O)C(CCN1CCC(O)(c2ccc(Cl)cc2)CC1)(c1ccccc1)c1ccccc1.Cl [Loperamide hydrochloride] , H1.0 immunofluorescence intensity = 102

Test item CCCCCC=CC=CC(CCCCCCCC(=O)O)OO (stereo not drawn) ; TDF; reported H1.0 immunofluorescence intensity was 100

Here CN1CCc2cccc(Cl)c2CC1.Cl was tested on TDF, and its H1.0 immunofluorescence intensity came to 96.2

Reading of H1.0 immunofluorescence intensity for COC1=CC(=O)OC(CCc2ccc3c(c2)OCO3)C1 (stereo not drawn) [Dihydromethysticin] with TDF: 90.4

Tested system TDF; H1.0 immunofluorescence intensity recorded for CCCC[N+]1(C)C2CC(OC(=O)C(CO)c3ccccc3)CC1C1OC12.[Br-] (stereo not drawn) [Scopolamine N-butylbromide] was 93.6

Per the reported TDF data, CCCCCCCCCCCCCCCCOCC(O)COP(=O)([O-])OCC[N+](C)(C)C (stereo not drawn) has H1.0 immunofluorescence intensity of 97.4

Tested system TDF; H1.0 immunofluorescence intensity recorded for COc1ccc2c(c1)C13CCCCC1C(C2)NCC3.Cl (stereo not drawn) [3-Methoxy-morphanin hydrochloride] was 97.3

Known value: TDF H1.0 immunofluorescence intensity of the molecule CCN1CC2(C)CCC(OC)C34C2C(OC(C)=O)C2(OCOC25CC(OC)C2CC3(O)C5C2OC)C14 (stereo not drawn) equals 98.2

Tested on TDF: NC1(C(=O)O)CCC(C(=O)O)C1 (mixture of isomers) . Observed H1.0 immunofluorescence intensity: 96.5

====

tested on: HCC1569; assay: cell number relative to DMSO (% of DMSO); higher = more cells (less growth inhibition / toxicity); conditions: concentration: 10 µM; 24 h
Would you kindly list cell number for each of these compounds?

cell number measured on Cc1c(C(=O)Nc2cccc(C(F)(F)F)c2)cc(-c2ccccc2)n1CCCN1CCOCC1 = 92.8

Notebook: COc1ccc(C(=O)OC2CC3CCC(C2)N3C)cc1OC (centres undefined) , cell number read as 105

Kindly note the recorded cell number for CC(CCc1ccccc1)NC(C)C(O)c1ccc(O)cc1.Cl (centres undefined) [Nylidrin hydrochloride] , which is 102

GET /value?item= COc1ccc2c(c1)=NC1=C(C)NCCC=21 &field=cell number returns 99.3

Recorded cell number (compound CC(C)C1CNC(C(=O)O)C1CC(=O)O (centres undefined) [Dihydrokainic acid] ): 102

For reference, reported cell number for NNC(=O)c1ccc(O)cc1 [4-Hydroxybenzhydrazide] stands at 97.7

cell number for CS(=O)(=O)O.Oc1ccc2c3c1OC1c4oc5ccccc5c4CC4(O)C(C2)N(CC2CC2)CCC314 (centres undefined) [Naltriben methanesulfonate] is 98.1

For this compound ( NC(CCP(=O)(O)O)C(=O)O (racemic) ), measured cell number is 99.4

So, C=CCN1CC(C)N(C(c2ccc(C(=O)N(CC)CC)cc2)c2cccc(OC)c2)CC1C (centres undefined) ? Its cell number was 102

====

tested on: TDF; assay: cell number relative to DMSO (% of DMSO); higher = more cells (less growth inhibition / toxicity); details: concentration: 10 µM; 24 h
Tick Fulfilled if cell number is 100 or greater. Tick Not fulfilled if cell number is less than 100.

Could you please find out whether Cc1ccc(S(=O)(=O)NC(CCCCN)C(=O)CCl)cc1.Cl [Na-p-Tosyl-L-lysine chloromethyl ketone hydrochloride] has cell number that meets 100 or exceeds it? Fulfilled

Confirm if cell number reported for the molecule CN1CC(CO)C=C2c3cccc4[nH]cc(c34)CC21 (centres undefined) is 100 or above. Fulfilled

Check the entry COc1ccc(-n2nc(C(F)(F)F)cc2-c2ccc(Cl)cc2)cc1 : does cell number equal or exceed 100? Fulfilled

Has CN1C(=O)CCS(=O)(=O)C1c1ccc(Cl)cc1 (centres undefined) a recorded cell number greater than or equal to 100? Fulfilled

Evaluate C=C1C(C)C2C(Cc3ccccc3)NC(=O)C23OC(=O)C=CC(O)CCCC(C)CC=CC3C1O (centres undefined) : cell number at minimum 100? Not fulfilled

Please tell me: is the molecule COc1ccc(CCN2CCC(Nc3nc4ccccc4n3Cc3ccc(F)cc3)CC2)cc1 at or over 100 in terms of cell number? Not fulfilled

Could you please find out whether CC(C(O)CCC(C)(C)O)C1CCC2(O)C3=CC(=O)C4CC(O)C(O)CC4(C)C3CCC12C (centres undefined) has cell number that meets 100 or exceeds it? Fulfilled

Is cell number for Cl.c1ccc2sc(C3(N4CCCCC4)CCCCC3)cc2c1 [BTCP hydrochloride] at or above 100? Fulfilled

Could you tell me if the measured cell number of CCCCc1ccc(C(=O)O)nc1 reaches 100 or more? Fulfilled

Quick check: does Br.COC(=O)C1=CCCN(C)C1 have cell number greater than or equal to 100? Fulfilled

hey, is cell number for this one >= 100? CC1Cc2c(Cl)cc(C(=O)NC(Cc3ccccc3)C(=O)O)c(O)c2C(=O)O1 (centres undefined) Not fulfilled

Please indicate if the recorded cell number for COc1ccc2c(c1O)-c1c(OC)c(OC)cc3c1C(C2)N(C)CC3.Cl (single isomer, unassigned; (+)) [(+)-Isocorydine hydrochloride] meets or exceeds 100. Fulfilled

Could you please find out whether NC(N)=Nc1ccc2[nH]c3c(c2c1)CC1(O)C2Cc4ccc(O)c5c4C1(CCN2CC1CC1)C3O5.O=C(O)C(F)(F)F.O=C(O)C(F)(F)F (centres undefined) [Guanidinyl-naltrindole di-trifluoroacetate] has cell number that meets 100 or exceeds it? Not fulfilled

Determine whether this molecule has cell number no lower than 100: NCCCNCCSP(=O)(O)O Fulfilled

Determine whether measured cell number meets or exceeds 100 for CC1C2Cc3ccc(O)cc3C1(C)CCN2CC1CC1 (single isomer, unassigned; (+)) [(+)-Cyclazocine] Not fulfilled

Please tell me: is the molecule C=C(C)C1CNC(C(=O)O)C1CC(=O)O (centres undefined) at or over 100 in terms of cell number? Fulfilled

Check if cell number >= 100 (inclusive). Item: CCCn1c(C)c(C(=O)c2cccc3ccccc23)c2ccccc21 Not fulfilled

In plain terms: is recorded cell number at least 100 for COc1cc(C(=O)OC2CC3CCC(C2)N3C)ccc1O (centres undefined) ? Not fulfilled

Is cell number at least 100? Consider CC1(CO)C(O)CCC2(C)C1CCC1CC3CC12CCC3(O)CO (centres undefined) Not fulfilled

Threshold query (cell number >= 100) on Br.CCCN(CCC)C1CCc2ccc(O)cc2C1 (stereo not drawn) [R-(+)-7-Hydroxy-DPAT hydrobromide] Fulfilled

Is cell number at least 100? Consider CCN(C)C(=O)Oc1cccc(C(C)N(C)C)c1 (centres undefined) Fulfilled

Check this molecule for cell number at or above 100: C=C(C)C1C2OC(=O)C1C1(O)CC3OC34C(=O)OC2C14C (centres undefined) Fulfilled

Decide: is the reported value of cell number for CCCN1CCOC2c3cc(O)ccc3OCC21.Cl (stereo not drawn) [S(+)-PD 128,907 hydrochloride] equal to or greater than 100? Fulfilled

Decide: is the reported value of cell number for CNC(=O)OCC[N+](C)(C)C.[Cl-] [Methylcarbamylcholine chloride] equal to or greater than 100? Not fulfilled

hey, is cell number for this one >= 100? C=CCN1CCC23c4c5ccc(O)c4OC2C(=NNC(=O)c2ccccc2)CCC3(O)C1C5 (centres undefined) [Naloxone benzoylhydrazone] Fulfilled

cell number >= 100 for CCCCCCCCCCCCCC(=O)OC1C(C)C2(O)C(C=C(CO)CC3(O)C(=O)C(C)=CC32)C2C(C)(C)C12OC(C)=O (stereo not drawn) [4alpha-Phorbol-12-myristate-13-acetate] ? Fulfilled

Does cell number meet or surpass 100 for CN(C)C(=O)Oc1cccc([N+](C)(C)C)c1 ? Fulfilled

Item CN1C(=O)C23CC4=CC=CC(O)C4N2C(=O)C1(CO)SS3 (centres undefined) with cell number of 100 or above? Not fulfilled

Please indicate if the recorded cell number for NC(=O)c1cc(N2CC2)c([N+](=O)[O-])cc1[N+](=O)[O-] meets or exceeds 100. Not fulfilled

Determine whether this molecule has cell number no lower than 100: C=CC12CN(C)C3C4COC(CC41)C1(C(=O)Nc4ccccc41)C32.Cl (centres undefined) Fulfilled

Form field: cell number at least 100? Entry: O=C1C=C2C(=CCOC2O)O1 (centres undefined) Not fulfilled
